Target: Transcription factor p65 (Homo sapiens)
Experiment: Inhibition of NF-kappaB DNA binding by EMSA
Here the recorded IC100 is given for each entry.

- structure.smiles: "C=C(C)C(=O)O[C@@H]1[C@@H]2C(=C)C(=O)O[C@@H]2C[C@@H](C)[C@@H]2C=CC(=O)[C@@]12C"
  unit: "µM"
  IC100: 5
- structure.smiles: "C=C1C(=O)O[C@H]2C[C@@H](C)[C@@H]3C=CC(=O)[C@@]3(C)[C@H](O)[C@H]12"
  unit: "µM"
  IC100: 20
- structure.smiles: "C=C(C)C(=O)O[C@H]1[C@H]2C(=C)C(=O)O[C@@H]2[C@@H](O)C(=C)CC/C=C(/C=O)[C@@H]1OC"
  unit: "µM"
  IC100: 50
- structure.smiles: "C=C1C(=O)O[C@@H]2[C@@H]3[C@@](C)(CC[C@@H]12)[C@@H](O)C[C@H]1O[C@@]31C"
  unit: "µM"
  IC100: 200

###

Here the recorded IC100 is given for each entry.
Biological target: Transcription factor p65 (Homo sapiens)
Assay: Inhibition of NF-kappaB DNA binding by EMSA
measured.attribute: IC100 (µM)

- compound: "C=C1C(=O)O[C@@H]2[C@H]3C(C)=CC[C@H](O)[C@]3(C)CC[C@@H]12"
  target.under.test: "Transcription factor p65 (Homo sapiens)"
  measured.attribute: "IC100"
  recorded.number: 300
- compound: "C=C1C(=O)O[C@H]2C/C(CO)=C/CC/C(COC(=O)C(C)CO)=C/C[C@H]12 (some centres undefined)"
  target.under.test: "Transcription factor p65 (Homo sapiens)"
  measured.attribute: "IC100"
  recorded.number: 100
- compound: "C=C(C)C(=O)O[C@H]1C[C@@]2(C)OC(=CC2=O)C(=C)[C@@H](O)[C@H]2OC(=O)C(=C)[C@@H]21"
  target.under.test: "Transcription factor p65 (Homo sapiens)"
  measured.attribute: "IC100"
  recorded.number: 10
- compound: "C=C1C(=O)O[C@@H]2C3O[C@]3(C)CC/C=C(\\C)CC[C@@H]12 (some centres undefined)"
  target.under.test: "Transcription factor p65 (Homo sapiens)"
  measured.attribute: "IC100"
  recorded.number: 20
- compound: "C=C1C(=O)O[C@]23C[C@H]1CCC(CO)=C2C(=O)C=C3C"
  target.under.test: "Transcription factor p65 (Homo sapiens)"
  measured.attribute: "IC100"
  recorded.number: 50
- compound: "C=C1C(=O)O[C@@H]2C3=C(C(=O)C[C@@H]3C)[C@@H](C)CC[C@@H]12"
  target.under.test: "Transcription factor p65 (Homo sapiens)"
  measured.attribute: "IC100"
  recorded.number: 20
- compound: "C=C1C(=O)O[C@H]2C[C@H](C)C3=C(C[C@H]12)[C@@H](C)CC3=O"
  target.under.test: "Transcription factor p65 (Homo sapiens)"
  measured.attribute: "IC100"
  recorded.number: 20
- compound: "C=C1C(=O)O[C@@H]2/C=C(\\C)CC/C=C(\\C)CC[C@@H]12"
  target.under.test: "Transcription factor p65 (Homo sapiens)"
  measured.attribute: "IC100"
  recorded.number: 50
- compound: "C=C1C(=O)O[C@H]2/C=C(\\C)CC/C=C(/C)C(=O)[C@H](OC(=O)[C@@]3(C)O[C@H]3C)[C@@H]12"
  target.under.test: "Transcription factor p65 (Homo sapiens)"
  measured.attribute: "IC100"
  recorded.number: 50

###

Target: Transcription factor p65 (Homo sapiens)
Test: Inhibition of NF-kappaB DNA binding by EMSA
Here the recorded IC100 is given for each entry.

- structure.smiles: "C=C(C)C(=O)O[C@@H]1C[C@@]2(C)OC(=CC2=O)/C(C)=C\\[C@H]2OC(=O)C(=C)[C@@H]21"
  IC100: "10 µM"
- structure.smiles: "C=C1C(=O)C[C@H]2C(=C)C(=O)O[C@@H]2/C=C(\\COC(=O)C(C)C)CC[C@@H]1OC"
  IC100: "25 µM"
- structure.smiles: "C=C1[C@@H]2[C@H]3OC(=O)C(=C)[C@@H]3CCC(=C)[C@@H]2C[C@@H]1OC(=O)C=C(C)C"
  IC100: "200 µM"
- structure.smiles: "C=C1C(=O)O[C@@H]2C[C@@H](C)[C@@H]3[C@H](OCC)CC(=O)[C@@]3(C)[C@H](OC(C)=O)[C@H]12"
  IC100: "50 µM"
- structure.smiles: "C=C(C)C(=O)O[C@@H]1C[C@@](C)(O)[C@@H]2C(=O)C=C(C)[C@@H]2[C@H]2OC(=O)C(=C)[C@@H]21"
  IC100: "20 µM"
- structure.smiles: "C=C1[C@H](O)C[C@H](O)[C@]2(C)CC[C@H]3C(=C)C(=O)O[C@@H]3[C@@H]12"
  IC100: "100 µM"
- structure.smiles: "C=C1C(=O)O[C@H]2C[C@]3(C)O[C@@H]3C[C@@H](OC(C)=O)C3=C[C@@H](OC3=O)[C@H]12"
  IC100: "10 µM"
- structure.smiles: "C=C1C(=O)O[C@H]2[C@H]1[C@@H](OC(=O)/C(C)=C/C)C/C(C)=C\\[C@@]1(OC)C=C(C)[C@@H]2O1"
  IC100: "10 µM"

###

Here the recorded IC100 is given for each entry.
Biological target: Transcription factor p65 (Homo sapiens)
Assay: Inhibition of NF-kappaB DNA binding by EMSA

- structure.smiles: "C=C[C@]1(C)CC[C@H]2C(=C)C(=O)O[C@@H]2[C@H]1C(=C)C"
  IC100, µM: 100
- structure.smiles: "C=C1C(=O)O[C@@H]2/C=C(\\COC(=O)C(C)C)CC/C=C(\\CO)C(=O)C[C@@H]12"
  IC100, µM: 12.5
- structure.smiles: "C=C(C)C(=O)O[C@H]1/C(C=O)=C\\CC/C(C)=C/[C@H]2OC(=O)C(=C)[C@@H]2[C@@H]1O"
  IC100, µM: 5
- structure.smiles: "C=C(C)C(=O)O[C@@H]1C[C@]2(C)CC[C@@](O)(O2)/C(C)=C\\[C@H]2OC(=O)C(=C)[C@@H]21"
  IC100, µM: 50

###

Molecular target: Transcription factor p65 (Homo sapiens) (UniProt Q04206)
Sequence (Q04206 whole entry): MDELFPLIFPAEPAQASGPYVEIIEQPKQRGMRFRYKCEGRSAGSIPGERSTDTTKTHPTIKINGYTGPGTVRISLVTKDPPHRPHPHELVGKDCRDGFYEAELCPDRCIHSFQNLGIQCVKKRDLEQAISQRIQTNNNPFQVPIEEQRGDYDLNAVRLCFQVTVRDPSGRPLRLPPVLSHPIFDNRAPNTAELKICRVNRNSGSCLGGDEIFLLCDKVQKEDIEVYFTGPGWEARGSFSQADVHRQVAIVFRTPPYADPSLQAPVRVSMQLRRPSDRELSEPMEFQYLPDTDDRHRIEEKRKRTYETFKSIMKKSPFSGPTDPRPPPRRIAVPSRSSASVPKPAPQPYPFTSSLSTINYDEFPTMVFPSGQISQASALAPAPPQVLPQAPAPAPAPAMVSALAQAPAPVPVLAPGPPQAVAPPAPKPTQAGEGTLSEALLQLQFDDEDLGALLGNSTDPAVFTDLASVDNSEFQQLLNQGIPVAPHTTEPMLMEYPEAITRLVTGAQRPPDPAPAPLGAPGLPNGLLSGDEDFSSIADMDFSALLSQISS
Experiment: Inhibition of NF-kappaB DNA binding by EMSA
measured.attribute: IC100 (µM)

- compound: "C=C1C(=O)O[C@H]2C/C(CO)=C/CC/C(COC(=O)C3(C)CO3)=C/C[C@H]12 (stereo partly drawn)"
  recorded.number: 50
- compound: "C=C1C(=O)O[C@@H]2[C@H]3C(C)=CC(=O)C3=C(C)C[C@@H](OC(=O)[C@]3(C)O[C@@H]3C)[C@@H]12"
  recorded.number: 20
- compound: "C=C1C(=O)O[C@H]2[C@H]1[C@@H](OC(=O)/C(C)=C/C)C/C(C)=C/C(=O)/C=C(/C)[C@@H]2O"
  recorded.number: 10
- compound: "C=C1C(=O)O[C@@H]2C[C@@H](C)[C@@H]3C=CC(=O)[C@@]3(C)[C@@H](O)[C@H]12"
  recorded.number: 10
- compound: "C=C(CO)C(=O)OC/C1=C\\C[C@@H]2C(=C)C(=O)O[C@H]2C/C(COC(C)=O)=C/CC1"
  recorded.number: 50
- compound: "C=C1C(=O)O[C@H]2[C@H]1[C@H](OC(=O)/C(C)=C\\C)C[C@@]1(C)OC(=CC1=O)C(=C)[C@@H]2O"
  recorded.number: 10
- compound: "C=C1C(=O)O[C@@H]2/C=C(\\C)[C@H](OC(C)=O)C/C=C(/C)CC[C@@H]12"
  recorded.number: 50
- compound: "C=C(C)C(=O)O[C@H]1C[C@@]2(C)OC(=CC2=O)/C(CO)=C\\[C@H]2OC(=O)C(=C)[C@H]12"
  recorded.number: 20

###

Molecular target: Transcription factor p65 (Homo sapiens) (UniProt Q04206)
Experiment: Inhibition of NF-kappaB DNA binding by EMSA
measured.attribute: IC100 (µM)

- compound: "C=C(C)C(=O)O[C@H]1[C@@H]2[C@H](C)C(=O)O[C@@H]2C[C@@H](C)[C@@H]2C=CC(=O)[C@]21C"
  recorded.number: 100
- compound: "C/C=C(\\C)C(=O)O[C@H]1[C@@H]2[C@H](C)C(=O)O[C@@H]2C[C@@H](C)[C@@H]2C=CC(=O)[C@]21C"
  recorded.number: 100
- compound: "CC(=O)O[C@H]1[C@@H]2[C@H](C)C(=O)O[C@@H]2C[C@@H](C)[C@@H]2C=CC(=O)[C@]21C"
  recorded.number: 200
- compound: "C=C1C(=O)O[C@@H]2/C=C(/C)C3=CC(=O)[C@@](C)(C[C@@H](OC(=O)/C(C)=C/C)[C@@H]12)O3"
  recorded.number: 5
- compound: "C=C(C)C(=O)O[C@@H]1C[C@](C)(O)[C@@H]2C(=O)C=C(C)[C@@H]2[C@H]2OC(=O)C(=C)[C@@H]21"
  recorded.number: 50
- compound: "C=C1C(=O)O[C@@H]2C[C@@]3(C)CC(=O)C(OC(C)=O)=C(C)C3C[C@H]12 (stereo partly drawn)"
  recorded.number: 100
- compound: "C=C1C(=O)C=C2[C@H]1C[C@@H]1C(=C)C(=O)O[C@@H]1C[C@@H]2C"
  recorded.number: 10
- compound: "C=C(C)C(=O)O[C@H]1C[C@@]2(C)OC(=CC2=O)C(=C)[C@@H](Cl)[C@H]2OC(=O)C(=C)[C@@H]21"
  recorded.number: 5
